Data origin: patent US20120022024A1

# test_target: S. aureus CrtM (dehydrosqualene synthase) (Staphylococcus aureus, UniProt A9JQL9)
# Sequence (A9JQL9 whole entry): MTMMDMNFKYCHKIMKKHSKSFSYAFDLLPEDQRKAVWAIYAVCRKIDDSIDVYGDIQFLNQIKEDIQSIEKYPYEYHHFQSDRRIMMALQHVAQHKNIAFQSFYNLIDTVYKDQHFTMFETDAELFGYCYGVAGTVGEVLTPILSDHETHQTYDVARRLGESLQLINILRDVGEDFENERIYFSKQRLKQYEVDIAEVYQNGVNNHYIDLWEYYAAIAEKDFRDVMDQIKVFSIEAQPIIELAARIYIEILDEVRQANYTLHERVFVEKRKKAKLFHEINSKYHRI
# experiment: CrtM enzyme inhibition assay
# condition_details: read-out: IC50 (CrtM); Table 1
Where a name gives a salt, the structure may show the parent alone.
Entries and their pIC50 values follow.
Friendly reminder that pIC50 comes from taking -log10 of the concentration in mol/L.

Look over these answered cases.
INSERT INTO results (compound, data_value) VALUES
  ('CC(C)(C)c1ccc(Oc2cccc(CCCC(P(=O)(O)O)S(=O)(=O)O)c2)cc1 (stereo not drawn) [Compound 25, tripotassium salt]', 4.98),
  ('O=P(O)(O)C(CCCc1cccc(Oc2ccc(Cc3ccccc3)cc2)c1)S(=O)(=O)O (stereo not drawn) [Compound 26, tripotassium salt]', 4.87);

Alright, here's another compound for you.
Return pIC50 for the following compound: CCCc1ccc(Oc2cccc(CCCC(P(=O)([O-])[O-])S(=O)(=O)[O-])c2)cc1.[K+].[K+].[K+] (stereo not drawn) [Compound 6, tripotassium salt]
5.66

====

# test_target: S. aureus CrtM (dehydrosqualene synthase) (Staphylococcus aureus)
reported_property: Ki

Look over these answered cases.
INSERT INTO results (compound, test_target, data_value) VALUES
  ('CCCc1ccc(Oc2cccc(CCCC(P(=O)([O-])[O-])S(=O)(=O)[O-])c2)cc1.[K+].[K+].[K+] (stereo not shown) [Compound 6, tripotassium salt]', 'S. aureus CrtM (dehydrosqualene synthase) (Staphylococcus aureus)', '~5 nM'),
  ('O=P(O)(O)C(CCCc1ccc(-c2ccccc2)cc1)P(=O)(O)O', 'S. aureus CrtM (dehydrosqualene synthase) (Staphylococcus aureus)', '~1 nM'),
  ('O=P([O-])([O-])C(CCCc1cccc(Oc2ccc(F)cc2)c1)S(=O)(=O)[O-].[K+].[K+].[K+] (stereo not shown) [Compound 5, tripotassium salt]', 'S. aureus CrtM (dehydrosqualene synthase) (Staphylococcus aureus)', '~5 nM');

Return Ki for the following compound: O=P([O-])([O-])C(CCCc1ccc(-c2ccc(C(F)(F)F)cc2)cc1)P(=O)([O-])[O-].[K+].[K+].[K+].[K+] [Compound 3, dipotassium salt]
~0.5 nM

====

# test_target: S. aureus CrtM (dehydrosqualene synthase) (Staphylococcus aureus)
# experiment: CrtM enzyme inhibition assay
Entries and their pIC50 values follow.
Friendly reminder that pIC50 comes from taking -log10 of the concentration in mol/L.

Provide pIC50, tested on S. aureus CrtM (dehydrosqualene synthase) (Staphylococcus aureus), for O=P(O)(O)CS(=O)(=O)NCCCc1cccc(Oc2ccccc2)c1 [compound 841] .
2.79

====

# test_target: S. aureus CrtM (dehydrosqualene synthase) (Staphylococcus aureus, UniProt A9JQL9)
# experiment: CrtM enzyme inhibition assay
# condition_details: read-out: IC50 against CrtM
Structures can show the parent of a compound that is named as a salt.
Entries and their IC50 values follow.

Look over these answered cases.
INSERT INTO measurements (molecule, reported_property, data_value) VALUES
  ('O=P(O)(O)C(CCCc1cccc(Nc2ccccc2)c1)S(=O)(=O)O (stereo not drawn) [Compound 16, tripotassium salt]', 'IC50', '43700 nM'),
  ('O=P([O-])([O-])C(CCCc1cccc(Oc2ccccc2)c1)S(=O)(=O)[O-].[K+].[K+].[K+] (stereo not drawn) [Compound 1, tripotassium salt, reference compound]', 'IC50', '7900 nM'),
  ('O=P([O-])([O-])[C@H](CCCc1cccc(Oc2ccccc2)c1)S(=O)(=O)[O-].[K+].[K+].[K+] [Compound (S)-1, tripotassium salt]', 'IC50', '1400 nM'),
  ('O=P(O)(O)C(CCCc1ccc(-c2ccccc2)cc1)P(=O)(O)O', 'IC50', '500 nM'),
  ('O=P([O-])([O-])C(CCCc1ccc(-c2ccc(C(F)(F)F)cc2)cc1)P(=O)([O-])[O-].[K+].[K+].[K+].[K+] [Compound 3, dipotassium salt]', 'IC50', '200 nM');

Return IC50 for the following molecule: O=P([O-])([O-])C(CCCc1cccc(Oc2ccc(F)cc2)c1)S(=O)(=O)[O-].[K+].[K+].[K+] (stereo not drawn) [Compound 5, tripotassium salt]
2300 nM

====

# Test system: staphyloxanthin (STX) biosynthesis in S. aureus
# experiment: Staphyloxanthin biosynthesis inhibition assay
# Assay type: cell-based, Staphylococcus aureus
# condition_details: Staphylococcus aureus, read-out: IC50 (STX)
Where a name gives a salt, the structure may show the parent alone.
reported_property: IC50 (nM)
Please respond with the number in nM and leave the unit unwritten.

INSERT INTO measurements (compound, data_value) VALUES
  ('CCCc1ccc(Oc2cccc(CCCC(P(=O)([O-])[O-])S(=O)(=O)[O-])c2)cc1.[K+].[K+].[K+] (stereo not shown) [Compound 6, tripotassium salt]', 100),
  ('CC(C)(C)c1ccc(Oc2cccc(CCCC(P(=O)(O)O)S(=O)(=O)O)c2)cc1 (stereo not shown) [Compound 25, tripotassium salt]', 21),
  ('O=P(O)(O)C(CCCc1cccc(Oc2ccc(Cc3ccccc3)cc2)c1)S(=O)(=O)O (stereo not shown) [Compound 26, tripotassium salt]', 49);

Alright, here's another compound for you.
Return IC50 for the following compound: O=P([O-])([O-])C(CCCc1cccc(Oc2ccccc2)c1)S(=O)(=O)[O-].[K+].[K+].[K+] (stereo not shown) [Compound 1, tripotassium salt, reference compound]
110

====

Entries and their pIC50 values follow.
# test_target: S. aureus CrtM (dehydrosqualene synthase) (Staphylococcus aureus, UniProt A9JQL9)
# experiment: CrtM enzyme inhibition assay
# condition_details: read-out: CrtM enzyme experimental activity IC50; Table 5
Counter-ions that a name gives are not always drawn.
Friendly reminder that pIC50 comes from taking -log10 of the concentration in mol/L.

INSERT INTO results (compound, data_value) VALUES
  ('O=P(O)(O)C(CCCc1cccc(Cc2ccccc2)c1)S(=O)(=O)O (stereo not shown) [Compound 17, tripotassium salt]', 4.69);

Return pIC50 for the following compound: CCCOc1cccc(-c2ccc(CCCC(P(=O)(O)O)S(=O)(=O)O)cc2)c1 (stereo not shown) [Compound 13, tripotassium salt]
3.91

Return pIC50 for the following compound: O=P(O)(O)C(CCCc1ccc(-c2ccc(F)cc2F)cc1)S(=O)(=O)O (stereo not shown) [Compound 10, tripotassium salt]
5.04

Return pIC50 for the following compound: O=P([O-])([O-])C(Cc1cccc(Oc2ccccc2)c1)S(=O)(=O)[O-].[K+].[K+].[K+] (stereo not shown) [Compound 14, tripotassium salt]
2.77

Return pIC50 for the following compound: Cc1ccc(-c2ccc(CCCC(P(=O)(O)O)S(=O)(=O)O)cc2)cc1 (stereo not shown) [Compound 11, tripotassium salt]
4.61

Return pIC50 for the following compound: O=P([O-])([O-])C(CCCc1ccc(-c2ccc(C(F)(F)F)cc2)cc1)P(=O)([O-])[O-].[K+].[K+].[K+].[K+] [Compound 3, dipotassium salt]
6.74

Return pIC50 for the following compound: O=P([O-])([O-])C(CCc1cccc(Oc2ccccc2)c1)S(=O)(=O)[O-].[K+].[K+].[K+] (stereo not shown) [Compound 15, tripotassium salt]
3.30

====

# Test system: staphyloxanthin (STX) biosynthesis in S. aureus
# experiment: Staphyloxanthin biosynthesis inhibition assay
# Type: cell-based, Staphylococcus aureus
# condition_details: Staphylococcus aureus, read-out: IC50 for STX biosynthesis
reported_property: IC50 (nM)
Please respond with the number in nM and leave the unit unwritten.

INSERT INTO measurements (molecule, result_unit, data_value) VALUES
  ('CCCc1ccc(Oc2cccc(CCCC(P(=O)([O-])[O-])S(=O)(=O)[O-])c2)cc1.[K+].[K+].[K+] (centres unmarked) [Compound 6, tripotassium salt]', 'nM', 93);

Alright, here's another molecule for you.
Return IC50 for the following molecule: O=P([O-])([O-])C(CCCc1cccc(Oc2ccccc2)c1)S(=O)(=O)[O-].[K+].[K+].[K+] (centres unmarked) [Compound 1, tripotassium salt, reference compound]
110

====

# Test system: staphyloxanthin (STX) biosynthesis in S. aureus
# experiment: Staphyloxanthin biosynthesis inhibition assay
# Format: cell-based, Staphylococcus aureus
# condition_details: Staphylococcus aureus, read-out: IC50(STX)
# Description: The question next arises: how potent are these compounds in inhibiting STX biosynthesis in S. aureus? We thus treated S. aureus bacteria with serially diluted compounds at 37° C. for 3 days, after which the STX pigment was extracted with methanol. Optical densities were measured at 450 nm and IC50 values for inhibition of pigment formation for each compound were calculated using a standard dose-response curve. […]
reported_property: pIC50
Friendly reminder that pIC50 comes from taking -log10 of the concentration in mol/L.

Look over these answered cases.
INSERT INTO assay_data (compound, data_value) VALUES
  ('O=C(CCCCc1ccc(Oc2ccccc2)cc1)CP(=O)(O)O', 4.55),
  ('O=C(CP(=O)(O)O)OCCCc1cccc(Oc2ccccc2)c1', 5.82),
  ('CN(CCCc1cccc(Oc2ccccc2)c1)C(=O)CP(=O)(O)O', 5.07);

Provide pIC50, tested on staphyloxanthin (STX) biosynthesis in S. aureus, for "O=C(CP(=O)(O)O)N(O)CCCc1cccc(Oc2ccccc2)c1" .
6.97

Provide pIC50, tested on staphyloxanthin (STX) biosynthesis in S. aureus, for O=C(NO)C(CCCc1cccc(Oc2ccccc2)c1)P(=O)(O)O (stereo not drawn) .
5.37

Provide pIC50, tested on staphyloxanthin (STX) biosynthesis in S. aureus, for "O=C(CP(=O)(O)O)N(O)Cc1cccc(-c2cccc(-c3ccccc3)c2)c1" .
3.80

Provide pIC50, tested on staphyloxanthin (STX) biosynthesis in S. aureus, for O=P([O-])([O-])C(CCCc1cccc(Oc2ccccc2)c1)S(=O)(=O)[O-].[K+].[K+].[K+] (stereo not drawn) [Compound 1, tripotassium salt, reference compound] .
6.96

Provide pIC50, tested on staphyloxanthin (STX) biosynthesis in S. aureus, for "O=C(CP(=O)(O)O)N(O)CCCc1cccc(Oc2ccc(Cl)c(Cl)c2)c1" .
7.38
